# MEASUREMENT_TARGET: T1, human MSLN-FL-his protein (human, UniProt Q13421 296-580)
# T1 construct: Made in HEK293E cells, purified on nickel column; also called hMSLN-FL-his; human MSLN full-length protein; not shown: His tag
# T1 sequence (Q13421 other isoform, or with tags, fused parts or gaps): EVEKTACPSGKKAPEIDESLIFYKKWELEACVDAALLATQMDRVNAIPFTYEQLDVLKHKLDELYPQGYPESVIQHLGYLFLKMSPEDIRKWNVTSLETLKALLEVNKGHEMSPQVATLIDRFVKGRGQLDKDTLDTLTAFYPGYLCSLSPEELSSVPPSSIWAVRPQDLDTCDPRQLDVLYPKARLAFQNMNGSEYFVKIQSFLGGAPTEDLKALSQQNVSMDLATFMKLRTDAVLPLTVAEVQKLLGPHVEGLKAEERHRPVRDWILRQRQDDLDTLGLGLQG
# ASSAY: ELISA, coated antigen, antibody 20 nM
READOUT_KIND: OD450
Answer with a number only.

BINDER	READING
S009-F7.26.15 chimeric antibody (antibody, human IgG1, kappa, V domains shown, Human-murine chimeric antibody, human IgG1/kappa constant regions) VH: DVQLQESGPGLVKPSQTVFLTCTVTGISITTGNYRWSWIRQFPGNKLEWIGYIYYTGFITYNPSLTSRTTITRDTPKNQFFLEMKSLTAEDTATYYCARDDYDYDVFAYWGQGTLVTVSA VL: DIQMTQSPASLSASVGETVTITCRASGNIHNYLAWYHQKQGKSPQFLVYKAKTLADGVPSRFSGSGSGTQYSLKINRLQPEDFGSYYCQHFLSIPLTFGAGTKLELKR	2.52

# ---- query binder ----
// query I would be grateful if you could share the reported OD450 for S009-F7.11.11 chimeric antibody (antibody, human IgG1, kappa, V domains shown, Human-murine chimeric antibody, human IgG1/kappa constant regions) VH: EVQLQQSGPELVKPGASVKIPCKASGYTITDYNMDWVKQSRGKSLEWIGDVFPYNGDSIYNQKFEGRATLTVDKYSSTAYMELRGLTSEDTAVYFCARRKTGTGYFDVWGTGTTVTVSS VL: QLVLTQSPAIMSASPGEKVTLTCSASSSVSSTYLSWYLQKPGSSPKLWIYSTSNLASGVPARFSGSGSGTSYSLTISSMEAEDAASYFCHQWSSYPYTFGGGTKLEIKR .
// result 2.35
